tested on: Staphylococcus aureus; experiment: Antibacterial activity against methicillin-resistant Staphylococcus aureus S17 measured after overnight incubation by broth double-dilution method; assay type: functional
Item-by-item account of MIC

# Compound, Endpoint unit, Relation operator, MIC
data = [
    ("O=c1c2ccccc2sn1CCCc1ccccc1", "µg/mL", "=", 2),
    ("CCCCCCCCn1sc2ccccc2c1=O", "µg/mL", "=", 1),
    ("O=c1c2ccccc2sn1-c1ccc(Cl)cc1", "µg/mL", "=", 1),
    ("O=c1c2ccccc2sn1-c1cccc(Br)c1", "µg/mL", "=", 3.9),
    ("CC(C)CCn1sc2ccccc2c1=O", "µg/mL", "=", 3.9),
    ("CC(C)c1ccc(-n2sc3ccccc3c2=O)cc1", "µg/mL", "≤", 0.25),
    ("NCC[C@H](O)C(=O)N[C@@H]1C[C@H](N)[C@@H](O[C@H]2O[C@H](CN)[C@@H](O)[C@H](O)[C@H]2O)[C@H](O)[C@H]1O[C@H]1O[C@H](CO)[C@@H](O)[C@H](N)[C@H]1O", "µg/mL", "=", 31.3),
    ("O=c1c2ccccc2sn1CCc1ccccc1", "µg/mL", "=", 1),
    ("O=c1c2ccccc2sn1-c1ccc(F)cc1", "µg/mL", "=", 3.9),
    ("O=c1c2ccccc2sn1C1CCCCC1", "µg/mL", "=", 7.8),
    ("CCCCCCn1sc2ccccc2c1=O", "µg/mL", "=", 3.9),
    ("O=c1c2ccccc2sn1C1CCCCCCC1", "µg/mL", "=", 2),
    ("O=c1c2ccccc2sn1-c1cccc2ccccc12", "µg/mL", "=", 1),
    ("CC(C)CCn1c(=O)c2ccccc2[s+]1[O-] (stereo not drawn)", "µg/mL", ">", 125),
    ("O=c1c2ccccc2[se]n1-c1ccccc1", "µg/mL", "=", 1),
    ("CCCCCCCCCCCCn1sc2ccccc2c1=O", "µg/mL", "=", 1),
    ("CC(C)(C)n1sc2ccccc2c1=O", "µg/mL", "=", 15.6),
    ("O=c1c2ccccc2[s+]([O-])n1C1CCCCCCC1 (stereo not drawn)", "µg/mL", ">", 125),
    ("O=c1c2ccccc2sn1-c1ccccn1", "µg/mL", "=", 7.8),
    ("COc1cc(OC)cc(-n2sc3ccccc3c2=O)c1", "µg/mL", "=", 1),
    ("O=c1c2ccccc2sn1-c1ccc(Br)cc1", "µg/mL", "=", 3.9),
    ("CC(C)c1cccc(-n2sc3ccccc3c2=O)c1", "µg/mL", "≤", 0.25),
    ("C#Cc1ccc(-n2sc3ccccc3c2=O)cc1", "µg/mL", "=", 3.9),
    ("CC(C)Cn1sc2ccccc2c1=O", "µg/mL", "=", 7.8),
    ("Cc1cc(C)cc(-n2sc3ccccc3c2=O)c1", "µg/mL", "=", 3.9),
    ("CC(C)Cn1c(=O)c2ccccc2[s+]1[O-] (stereo not drawn)", "µg/mL", ">", 125),
    ("CCCCCn1sc2ccccc2c1=O", "µg/mL", "=", 2),
    ("O=c1c2ccccc2sn1C1CCCCCC1", "µg/mL", "=", 1),
]

Reference for the values: ChEMBL document CHEMBL3864121
